Please provide measured pIC50 for the entries that follow.
# systemName: human NLRP3 (Homo sapiens (Human), UniProt Q96P20)
# Sequence (Q96P20 whole entry): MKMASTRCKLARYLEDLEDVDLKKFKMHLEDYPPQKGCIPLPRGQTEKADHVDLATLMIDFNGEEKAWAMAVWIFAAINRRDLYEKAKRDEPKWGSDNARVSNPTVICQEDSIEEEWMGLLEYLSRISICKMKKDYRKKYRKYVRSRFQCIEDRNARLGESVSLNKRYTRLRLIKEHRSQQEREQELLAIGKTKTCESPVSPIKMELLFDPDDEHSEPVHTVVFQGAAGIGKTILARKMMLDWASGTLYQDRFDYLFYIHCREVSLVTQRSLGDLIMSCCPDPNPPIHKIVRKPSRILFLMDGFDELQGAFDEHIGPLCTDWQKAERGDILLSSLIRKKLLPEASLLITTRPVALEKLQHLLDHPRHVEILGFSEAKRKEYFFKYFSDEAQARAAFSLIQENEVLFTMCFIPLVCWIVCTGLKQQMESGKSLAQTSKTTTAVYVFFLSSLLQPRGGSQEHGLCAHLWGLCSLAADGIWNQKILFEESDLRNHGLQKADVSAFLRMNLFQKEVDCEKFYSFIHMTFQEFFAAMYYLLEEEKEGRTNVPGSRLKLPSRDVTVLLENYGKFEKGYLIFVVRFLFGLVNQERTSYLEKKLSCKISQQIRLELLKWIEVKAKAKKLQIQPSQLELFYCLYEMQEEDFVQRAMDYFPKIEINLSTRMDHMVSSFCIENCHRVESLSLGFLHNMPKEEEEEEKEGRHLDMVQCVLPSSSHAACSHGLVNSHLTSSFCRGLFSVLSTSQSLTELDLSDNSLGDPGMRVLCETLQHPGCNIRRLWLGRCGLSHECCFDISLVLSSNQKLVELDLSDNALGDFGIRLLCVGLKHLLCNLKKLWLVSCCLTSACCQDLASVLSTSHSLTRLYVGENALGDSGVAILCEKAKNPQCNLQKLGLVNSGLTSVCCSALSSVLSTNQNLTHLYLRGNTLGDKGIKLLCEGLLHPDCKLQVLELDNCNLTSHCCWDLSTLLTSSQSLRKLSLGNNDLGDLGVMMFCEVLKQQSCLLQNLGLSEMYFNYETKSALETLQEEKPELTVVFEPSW
# experimentalDetails: Scintillation Proximity (SPA) NLRP3 Assay: displacement of 3H-MCC950
# Format: binding
# recordedConditions: displacement of 3H-MCC950; read-out: SPA IC50
pIC50: −log10 of the molar value.

Item C[C@H]1CCN(c2nnn[nH]2)C[C@H](NC(=O)C2(c3ccc(C(F)(F)F)cc3)CC2)C1 (single isomer, unassigned) [61B*] has what recorded pIC50?
5.00 to 6.00

Moving on to O=C(N[C@H]1CC[C@@H]2CC[C@H]1N2c1nnn[nH]1)C1(c2ccc(C(F)(F)F)cc2O)CC1 (single isomer, unassigned) [34B*]
5.00 to 6.00

Cool, now C[C@H]1CCN(c2nnn[nH]2)C[C@H](NC(=O)C2(c3ccc(OC(F)F)cc3F)CC2)C1 (single isomer, unassigned) [3C*]
< 4.00

Item: C[C@@H]1CCN(c2nnn[nH]2)C[C@H](NC(=O)C2(c3cc(F)c(C(F)(F)F)cc3F)CC2)C1 (single isomer, unassigned) [7A*]
> 6.00

Next up: C[C@H]1CCN(c2nnn[nH]2)C[C@@H](NC(=O)C2(c3ccc(OC(F)F)cc3)CC2)C1 (single isomer, unassigned) [58D*]
5.00 to 6.00

And then C[C@H]1CCN(c2nnn[nH]2)C[C@@H](NC(=O)C2(c3ccc(C(F)(F)F)c(F)c3)CC2)C1 (single isomer, unassigned) [66D*] , what is it?
4.30 to 5.00
